Ref: patent US11542259B2

The entries below are paired with their reported pIC50.
Target: Human Axl (residues H473-A894 with Q764R) (Homo sapiens (Human), UniProt P30530, Q764R)
Sequence (P30530 473-894 Q764R): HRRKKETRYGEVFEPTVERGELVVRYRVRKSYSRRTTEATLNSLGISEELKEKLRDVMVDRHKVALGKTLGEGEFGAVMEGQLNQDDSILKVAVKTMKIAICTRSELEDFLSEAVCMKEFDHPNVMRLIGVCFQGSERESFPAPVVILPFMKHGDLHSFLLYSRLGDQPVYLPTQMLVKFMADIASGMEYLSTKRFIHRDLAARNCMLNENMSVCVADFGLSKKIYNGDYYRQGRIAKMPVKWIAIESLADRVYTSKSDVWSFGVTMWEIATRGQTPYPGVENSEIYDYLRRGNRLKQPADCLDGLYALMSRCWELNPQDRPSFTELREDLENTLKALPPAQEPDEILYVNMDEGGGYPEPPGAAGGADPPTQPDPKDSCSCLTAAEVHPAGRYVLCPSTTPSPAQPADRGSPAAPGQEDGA
Assay: Human AXL kinase assay (33P radiometric, KinaseProfiler)
Settings: 10 μM ATP
pIC50: −log10 of the molar value.

These recorded examples may help you get a feel for the data.
{"Structure Notation": "COc1cc2nccc(Oc3ccc(NC(=O)C4(C(=O)Nc5ccc(F)cc5)CC4)cc3)c2cc1C(=O)O", "pIC50": "6.00 to 7.00"}
{"Structure Notation": "COc1cc2nccc(Oc3ccc(NC(=O)C4(C(=O)Nc5ccc(F)cc5)CC4)cc3)c2cc1S(N)(=O)=O", "pIC50": "≥ 8.00"}
{"Structure Notation": "NC(=O)c1cc2c(Oc3ccc(NC(=O)C4(C(=O)Nc5ccc(F)cc5)CC4)cc3)ccnc2cc1F", "pIC50": "7.00 to 8.00"}
{"Structure Notation": "COc1cc2nccc(Oc3ccc(NC(=O)C4(C(=O)Nc5ccc(F)cc5)CC4)cc3)c2cc1-c1ccc[nH]1", "pIC50": "7.00 to 8.00"}
{"Structure Notation": "CNC(=O)c1cc2nccc(Oc3ccc(NC(=O)C4(C(=O)Nc5ccc(F)cc5)CC4)cc3)c2cc1OC", "pIC50": "7.00 to 8.00"}
{"Structure Notation": "COc1cc2nccc(Oc3ccc(NC(=O)C4(C(=O)Nc5ccc(F)cc5)CC4)cc3)c2cc1N1CC(O)C1", "pIC50": "≥ 8.00"}
{"Structure Notation": "COC(=O)c1cc2c(Oc3ccc(NC(=O)C4(C(=O)Nc5ccc(F)cc5)CC4)cc3)ccnc2cc1OC", "pIC50": "7.00 to 8.00"}
{"Structure Notation": "COC(=O)c1cc2nccc(Oc3ccc(NC(=O)C4(C(=O)Nc5ccc(F)cc5)CC4)cc3)c2cc1OC", "pIC50": "7.00 to 8.00"}

Enquiry: Which pIC50 reading was recorded for the compound `COc1cc2nccc(Oc3ccc(NC(=O)C4(C(=O)Nc5ccc(F)cc5)CC4)cc3)c2cc1-c1cnn(C)c1` ?
Return: 7.00 to 8.00

Enquiry: Name the recorded pIC50 for `CNC(=O)c1cc2c(Oc3ccc(NC(=O)C4(C(=O)Nc5ccc(F)cc5)CC4)cc3F)ccnc2cc1OC` .
Return: ≥ 8.00

Enquiry: Data request, read-out pIC50, for `COc1cc2nccc(Oc3ccc(NC(=O)C4(C(=O)Nc5ccc(F)cc5)CC4)cc3Cl)c2cc1C(=O)O`
Return: 7.00 to 8.00

Enquiry: Returns the measured pIC50 for the input compound. Input: `COc1cc2nccc(Oc3ccc(NC(=O)C4(C(=O)Nc5ccc(F)cc5)CC4)cc3)c2cc1-c1cnoc1`
Return: 7.00 to 8.00

Enquiry: For the compound `COC(=O)c1cc2nccc(Oc3ccc(NC(=O)C4(C(=O)Nc5ccc(F)cc5)CC4)cc3)c2cc1C` , what pIC50 is on record?
Return: 7.00 to 8.00

* * *

Below is a list of entries, each paired with its recorded IC50 value.
Target: KDR (Homo sapiens (Human))
Sequence (P35968 20-1356): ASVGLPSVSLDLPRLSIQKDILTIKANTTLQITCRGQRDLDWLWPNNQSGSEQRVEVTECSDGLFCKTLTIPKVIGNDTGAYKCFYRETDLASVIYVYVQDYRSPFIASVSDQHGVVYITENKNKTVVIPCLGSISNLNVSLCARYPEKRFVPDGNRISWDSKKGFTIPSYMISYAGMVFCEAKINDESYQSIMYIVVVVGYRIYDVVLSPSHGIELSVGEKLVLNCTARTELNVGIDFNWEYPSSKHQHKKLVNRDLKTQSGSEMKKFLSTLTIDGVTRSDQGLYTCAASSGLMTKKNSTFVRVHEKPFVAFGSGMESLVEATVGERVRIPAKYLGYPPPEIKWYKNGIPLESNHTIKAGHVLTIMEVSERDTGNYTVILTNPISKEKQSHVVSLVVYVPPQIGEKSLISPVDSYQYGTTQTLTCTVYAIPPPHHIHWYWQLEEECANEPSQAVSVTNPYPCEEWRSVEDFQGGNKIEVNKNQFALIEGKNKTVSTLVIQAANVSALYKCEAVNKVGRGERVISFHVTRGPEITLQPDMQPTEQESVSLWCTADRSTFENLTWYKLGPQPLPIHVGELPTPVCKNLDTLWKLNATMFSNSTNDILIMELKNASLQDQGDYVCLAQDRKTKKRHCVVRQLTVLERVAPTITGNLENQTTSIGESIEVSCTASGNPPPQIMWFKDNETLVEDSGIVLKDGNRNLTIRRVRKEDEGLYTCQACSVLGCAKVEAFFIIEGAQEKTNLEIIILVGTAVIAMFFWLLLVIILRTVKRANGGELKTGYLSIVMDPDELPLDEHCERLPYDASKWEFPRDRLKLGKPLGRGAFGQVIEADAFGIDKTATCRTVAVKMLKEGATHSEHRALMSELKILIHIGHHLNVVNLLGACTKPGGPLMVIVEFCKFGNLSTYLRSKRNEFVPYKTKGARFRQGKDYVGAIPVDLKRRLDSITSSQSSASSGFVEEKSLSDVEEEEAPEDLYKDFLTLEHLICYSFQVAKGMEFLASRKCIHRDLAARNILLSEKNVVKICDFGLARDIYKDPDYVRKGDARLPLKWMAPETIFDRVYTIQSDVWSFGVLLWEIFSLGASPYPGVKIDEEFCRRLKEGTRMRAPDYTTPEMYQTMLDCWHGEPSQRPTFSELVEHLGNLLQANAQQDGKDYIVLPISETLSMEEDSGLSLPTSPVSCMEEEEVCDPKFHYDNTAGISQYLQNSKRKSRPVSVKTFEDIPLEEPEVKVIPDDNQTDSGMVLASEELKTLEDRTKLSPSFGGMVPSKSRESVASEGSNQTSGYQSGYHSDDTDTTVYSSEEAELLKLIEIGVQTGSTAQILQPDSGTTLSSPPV
Assay: KDR autophosphorylation ELISA in HUVEC cells
Details: cellular, VEGF165 stimulated

{"Molecule": "CNC(=O)c1ccc2nccc(Oc3ccc(NC(=O)C4(C(=O)Nc5ccc(F)cc5)CC4)cc3)c2c1 [Compound 59]", "System Under Test": "KDR (Homo sapiens (Human))", "IC50": "100 to 300 nM"}

// switching to the query molecule
Enquiry: Item COc1cc2nccc(Oc3ccc(NC(=O)C4(C(=O)Nc5ccc(F)cc5)CC4)cc3)c2cc1C1(O)CN(C(=O)OC(C)(C)C)C1 [Compound 195] has what recorded IC50?
Return: 10 to 100 nM
